Molecular target: T1, RBFOX1 RRM RbFoxmut (Fox-RRM*) (Homo sapiens, UniProt Q9NWB1 109-208, R118D;E147R;N151S;E152T)
T1 sequence: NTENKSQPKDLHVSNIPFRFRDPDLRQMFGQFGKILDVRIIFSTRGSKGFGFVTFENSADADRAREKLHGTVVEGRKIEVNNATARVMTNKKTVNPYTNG
Test: EMSA; HiTS-Eq, 1 nM pool, 10 min; buffer printed only for the single-RNA assays: 10 mM Tris pH 7.5, 150 mM NaCl, 3.4 mM EDTA, 0.001% NP-40, 30 C
Conditions: tags: His6 N-terminal (pET28a); label: 5' 32P
The full ranking holds about 16,000 sequences; the median of “ka relative to ugcaugu” is about 0.096, and the highest 2% start at about 0.35. The entries come from a sample that favours the highest values as a whole.
READOUT NAME: binding signal

{"columns": ["BINDER", "READOUT VALUE"],
 "data": [
  ["GUAUGUG (DNA:RNA) RNA: GGGAGACCGGAAUUCAGAUUGUCCGUAUGUGUUAAAUCCCGUCGUAGCCACCA DNA 1: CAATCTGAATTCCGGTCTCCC DNA 2: TGGTGGCTACGACGGGATT", "0.787 KA relative to UGCAUGU"]
]}

Prompt: // binding signal lookup, key: GUGUAUG (DNA:RNA) RNA: GGGAGACCGGAAUUCAGAUUGUCCGUGUAUGUUAAAUCCCGUCGUAGCCACCA DNA 1: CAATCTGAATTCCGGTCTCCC DNA 2: TGGTGGCTACGACGGGATT
Completion: 1.38 KA relative to UGCAUGU

Prompt: // binding signal lookup, key: UUGUAUG (DNA:RNA) RNA: GGGAGACCGGAAUUCAGAUUGUCCUUGUAUGUUAAAUCCCGUCGUAGCCACCA DNA 1: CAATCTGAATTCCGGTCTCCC DNA 2: TGGTGGCTACGACGGGATT
Completion: 1.24 KA relative to UGCAUGU

Prompt: // binding signal lookup, key: GUGUCCG (DNA:RNA) RNA: GGGAGACCGGAAUUCAGAUUGUCCGUGUCCGUUAAAUCCCGUCGUAGCCACCA DNA 1: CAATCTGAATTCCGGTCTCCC DNA 2: TGGTGGCTACGACGGGATT
Completion: 0.216 KA relative to UGCAUGU

Data origin: paper PMC9911399
